The origin of these recorded values is paper PMC10165143.

Subject of test: T1, Bmh2 (S. cerevisiae 14-3-3 isoform) (S. cerevisiae, UniProt P34730 1-273)
T1 sequence (looked up): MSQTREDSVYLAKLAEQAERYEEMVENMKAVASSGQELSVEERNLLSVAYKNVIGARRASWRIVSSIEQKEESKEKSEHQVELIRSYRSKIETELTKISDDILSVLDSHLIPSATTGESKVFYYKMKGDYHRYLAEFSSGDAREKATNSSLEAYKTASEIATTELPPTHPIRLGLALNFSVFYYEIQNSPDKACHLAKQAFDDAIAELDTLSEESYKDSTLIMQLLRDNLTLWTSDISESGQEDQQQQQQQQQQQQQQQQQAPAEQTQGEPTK
Measurement protocol: fluorescence polarisation
Where no end group is shown, it is not given here. [ ]: non-standard residue; d: D form. The star is where a group is joined. FITC = O=C1OC2(c3ccc(O)cc3Oc3cc(O)ccc32)c2ccc(NC(=S)*)cc21; pT = C[C@@H](OP(=O)(O)O)[C@H](N)C(=O)O
Readout kind: Kd (µM)
Reply with just the number (in µM).

*Q* Request the reported Kd associated with {FITC}-RRCF[pT]LLFP [FITC-labeled synthetic Trk1 peptide (FITC-RRCFpTLLFP) with phosphorylated Thr900]
*A* 3.4
